Field: solubility. Provide a value for each of the molecules that follow.
Assay: Peptide solubility in PBS/H2O
Settings: PBS, Solubility in PBS (mg/ml), PBS (first figure of cell)
Non-standard residues stand in square brackets, D forms with d. Residues, ends and D or L forms follow the SMILES beside them. *: point of attachment. Biotin = O=C1N[C@H]2[C@H](CS[C@H]2CCCCC(=O)*)N1; βAla = NCCC(=O)O
I only need the number, in µg/mL, no unit after it.

Field solubility (entry CC(C)C[C@H](NC(=O)[C@H](Cc1c[nH]c2ccccc12)NC(=O)CCN)C(=O)N[C@@H](C)C(=O)N[C@@H](Cc1ccc(O)cc1)C(=O)N1CCC[C@H]1C(=O)N[C@@H](CC(=O)O)C(=O)N[C@@H](CO)C(=O)N[C@H](C(=O)N1CCC[C@H]1C(=O)N[C@@H](Cc1ccc(O)cc1)C(=O)N[C@@H](CCCNC(=N)N)C(=O)N1CCC[C@H]1C(=O)N[C@@H](CCCCN)C(N)=O)C(C)C ) reads 10000

Value of solubility reported for the molecule CSCC[C@H](NC(=O)[C@H](CCSC)NC(=O)[C@@H]1CCCN1C(=O)[C@@H](NC(=O)[C@H](CO)NC(=O)[C@H](CC(=O)O)NC(=O)[C@@H]1CCCN1C(=O)[C@H](Cc1ccc(O)cc1)NC(=O)[C@H](C)NC(=O)[C@H](CO)NC(=O)[C@@H](N)Cc1ccc(O)cc1)C(C)C)C(=O)N[C@@H](CO)C(=O)NCC(=O)N[C@@H](CO)C(=O)NCC(=O)N[C@@H](CO)C(=O)N[C@@H](CCCCNC(=O)CCCC[C@@H]1SC[C@@H]2NC(=O)N[C@@H]21)C(=O)O is 15000

The molecule listed as CC(C)C[C@H](NC(=O)[C@H](Cc1c[nH]c2ccccc12)NC(=O)CCN)C(=O)N[C@@H](C)C(=O)N[C@@H](Cc1ccc(O)cc1)C(=O)N1CCC[C@H]1C(=O)N[C@@H](CC(=O)O)C(=O)N[C@@H](CO)C(=O)N[C@H](C(=O)N1CCC[C@H]1C(=O)N[C@@H](Cc1ccc(O)cc1)C(=O)N[C@@H](CO)C(=O)N[C@@H](CCCCNC(=O)CCCC[C@@H]1SC[C@@H]2NC(=O)N[C@@H]21)C(=O)O)C(C)C [βA-WLA-YSK-bio] (H-[βAla]WLAYPDSVPYSK(Biotin)-OH; N-terminus and C-terminus assumed) has a reported solubility of 2000

The molecule listed as CSCC[C@H](NC(=O)[C@H](CCSC)NC(=O)[C@@H]1CCCN1C(=O)[C@@H](NC(=O)[C@H](CO)NC(=O)[C@H](CC(=O)O)NC(=O)[C@@H]1CCCN1C(=O)[C@H](Cc1ccc(O)cc1)NC(=O)[C@H](C)NC(=O)[C@H](CO)NC(=O)[C@@H](N)Cc1ccc(O)cc1)C(C)C)C(=O)N[C@@H](CO)C(=O)NCC(=O)N[C@@H](CO)C(=O)NCC(=O)N[C@@H](CO)C(=O)N[C@@H](CCCCN)C(=O)O shows solubility equal to 10000

# solubility (molecule: CC(C)C[C@H](NC(=O)[C@H](Cc1c[nH]c2ccccc12)NC(=O)CCN)C(=O)N[C@@H](C)C(=O)N[C@@H](Cc1ccc(O)cc1)C(=O)N1CCC[C@H]1C(=O)N[C@@H](CC(=O)O)C(=O)N[C@@H](CO)C(=O)N[C@H](C(=O)N1CCC[C@H]1C(=O)N[C@@H](Cc1ccc(O)cc1)C(=O)NCC(=O)N[C@@H](CO)C(=O)NCC(=O)N[C@@H](CCCCNC(=O)CCCC[C@@H]1SC[C@@H]2NC(=O)N[C@@H]21)C(=O)O)C(C)C [βA-WLA-YGSGK-bio] (H-[βAla]WLAYPDSVPYGSGK(Biotin)-OH; N-terminus and C-terminus assumed) ) is 5000

So for CSCC[C@H](NC(=O)[C@@H]1CCCN1C(=O)[C@@H](NC(=O)[C@H](CO)NC(=O)[C@H](CC(=O)O)NC(=O)[C@@H]1CCCN1C(=O)[C@H](Cc1ccc(O)cc1)NC(=O)[C@H](C)NC(=O)[C@H](CC(C)C)NC(=O)[C@H](Cc1c[nH]c2ccccc12)NC(=O)CCN)C(C)C)C(N)=O [βA-WLAam] (HELM PEPTIDE1{[bAla].W.L.A.Y.P.D.S.V.P.M.[am]}$$$$V2.0; N-terminus assumed) , the logged solubility turned out to be 10000

// solubility lookup, molecule = CC(C)C[C@H](NC(=O)[C@H](Cc1c[nH]c2ccccc12)NC(=O)CCN)C(=O)N[C@@H](C)C(=O)N[C@@H](Cc1ccc(O)cc1)C(=O)N1CCC[C@H]1C(=O)N[C@@H](CC(=O)O)C(=O)N[C@@H](CO)C(=O)N[C@H](C(=O)N1CCC[C@H]1C(=O)N[C@@H](Cc1ccc(O)cc1)C(=O)N[C@@H](CO)C(=O)N[C@@H](CCCCN)C(=O)O)C(C)C [βA-WLA-YSK] (HELM PEPTIDE1{[bAla].W.L.A.Y.P.D.S.V.P.Y.S.K}$$$$V2.0; N-terminus and C-terminus assumed) , result: 5000

So, CC(C)C[C@H](NC(=O)[C@H](Cc1c[nH]c2ccccc12)NC(=O)CCN)C(=O)N[C@@H](C)C(=O)N[C@@H](Cc1ccc(O)cc1)C(=O)N1CCC[C@H]1C(=O)N[C@@H](CC(=O)O)C(=O)N[C@@H](CO)C(=O)N[C@H](C(=O)N1CCC[C@H]1C(=O)N[C@@H](Cc1ccc(O)cc1)C(=O)N[C@@H](CCCNC(=N)N)C(=O)N1CCC[C@H]1C(=O)N[C@@H](CCCCN)C(=O)O)C(C)C ? Its solubility was 10000

solubility reading for CC(=O)NCCCC[C@H](NC(=O)[C@@H]1CCCN1C(=O)[C@H](CCCNC(=N)N)NC(=O)[C@H](Cc1ccc(O)cc1)NC(=O)[C@@H]1CCCN1C(=O)[C@@H](NC(=O)[C@H](CO)NC(=O)[C@H](CC(=O)O)NC(=O)[C@@H]1CCCN1C(=O)[C@H](Cc1ccc(O)cc1)NC(=O)[C@H](C)NC(=O)[C@H](CC(C)C)NC(=O)[C@H](Cc1c[nH]c2ccccc12)NC(=O)CCN)C(C)C)C(=O)O : 5000

Origin of values: patent US12398179B2
